The origin of these recorded values is PubChem BioAssay AID1963442.

test system: MPNST complex spheroid with HUVEC/MSC, growth, % test/control; test: Anticancer human tumor MPNST cell line growth inhibition [Asc]; conditions: second compound 0.0316 µM; first compound 0.00316 µM; active compounds read low;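 further: compounds left on spheroids for seven days before reading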
PROPERTY: viability, T/C (%)
Give the value in % but do not write % after it.

The measured viability, T/C associated with COc1c(OCCCN2CCOCC2)ccc2c3n(c(=NC(=O)c4cnc(N)nc4)nc12)CCN3 + CNC(C)C(=O)NC1CN(S(=O)(=O)c2cccc(S(=O)(=O)N3CCC4CCC(C(=O)NC(c5ccccc5)c5ccccc5)N4C(=O)C(NC(=O)C(C)NC)C3)c2)CCC2CCC(C(=O)NC(c3ccccc3)c3ccccc3)N2C1=O reads 104

The measured viability, T/C associated with O=C(c1ccc(F)c(F)c1Nc1ccc(I)cc1F)N1CC(O)([C@@H]2CCCCN2)C1 + CNC(C)C(=O)NC1CN(S(=O)(=O)c2cccc(S(=O)(=O)N3CCC4CCC(C(=O)NC(c5ccccc5)c5ccccc5)N4C(=O)C(NC(=O)C(C)NC)C3)c2)CCC2CCC(C(=O)NC(c3ccccc3)c3ccccc3)N2C1=O reads 108

The measured viability, T/C associated with Cn1ncnc1[C@H]1c2n[nH]c(=O)c3cc(F)cc(c23)N[C@@H]1c1ccc(F)cc1 + CNC(C)C(=O)NC1CN(S(=O)(=O)c2cccc(S(=O)(=O)N3CCC4CCC(C(=O)NC(c5ccccc5)c5ccccc5)N4C(=O)C(NC(=O)C(C)NC)C3)c2)CCC2CCC(C(=O)NC(c3ccccc3)c3ccccc3)N2C1=O reads 73.6

The measured viability, T/C associated with NC1CCC(NC2CC2c2ccccc2)CC1 (stereo not given) + CNC(C)C(=O)NC1CN(S(=O)(=O)c2cccc(S(=O)(=O)N3CCC4CCC(C(=O)NC(c5ccccc5)c5ccccc5)N4C(=O)C(NC(=O)C(C)NC)C3)c2)CCC2CCC(C(=O)NC(c3ccccc3)c3ccccc3)N2C1=O reads 70.4

The measured viability, T/C associated with CCN1CCN(Cc2ccc(Nc3ncc(F)c(-c4cc(F)c5nc(C)n(C(C)C)c5c4)n3)nc2)CC1 + CNC(C)C(=O)NC1CN(S(=O)(=O)c2cccc(S(=O)(=O)N3CCC4CCC(C(=O)NC(c5ccccc5)c5ccccc5)N4C(=O)C(NC(=O)C(C)NC)C3)c2)CCC2CCC(C(=O)NC(c3ccccc3)c3ccccc3)N2C1=O reads 94.5
